Data origin, for the record: the supplement of paper PMC10567573

Collected protein stability index values appear next to each entry.
B1: ACSBG2 (parent)
chain: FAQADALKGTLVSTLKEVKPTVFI

Variants of: B1
Experiment: protein stability index of a GFP-peptide fusion (GPS, HEK-293T) (PSI 1-6); higher = more stable;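 note: lentivirally expressed fusions sorted by FACS into six bins by GFP to DsRed ratio, PSI derived from sequencing read proportions per bin multiplied by bin number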
Conditions: c terminus: a fixed tail appended
Form field (numeric): enter value without unit.

## Input // protein stability index lookup, key: "F23K"
## Output 2.69

## Input Then this variant: "D5E"
## Output 1.26

More entries:
## Input // protein stability index lookup, key: "V12N"
## Output 1.6

## Input Then this variant: "I24C"
## Output 2.92
